For each entry below, report its growth inhibition value.
Assay: NCI Yeast Anticancer Drug Screen. Data for the bub3 strain (AID 167)
Conditions: S. cerevisiae bub3 mutant strain, at 5.0 µM (retest, dose inferred, filed as 0.5), hits give high values
Experimental: Growth inhibition of yeast strains with defined genetic alterations is measured as a screen for potential anti-cancer activity. Selected strains with alterations in DNA damage repair or cell cycle control were exposed to compounds and growth inhibition was measured relative to vehicle treated controls. The strain used in this assay is bub3
Compounds without any hit were thinned out: in the full panel of roughly 79,000, 15% have a hit.
Give bare numbers, in %.

Previously resolved entries follow.
- TEST SMILES: "C/C(=N\\NC(=S)SCc1ccccc1)c1ccccn1"
  growth inhibition [%]: 30
- TEST SMILES: "Cc1cc(I)ccc1N"
  growth inhibition [%]: 27
- TEST SMILES: "O=C(OCC=C1CCCC1)c1cc([N+](=O)[O-])cc([N+](=O)[O-])c1"
  growth inhibition [%]: -21
- TEST SMILES: "CC1(C)[C@@H]2CC[C@]1(C)[C@H](OC(=O)CSC#N)C2"
  growth inhibition [%]: 14

Could you now look at the following compound, please?
(Q) Fill in: growth inhibition of CC(C)/C(Cl)=N\OC(=O)Nc1ccccc1F is ___
(A) 49

====

Assay: NCI Yeast Anticancer Drug Screen. Data for the sgs1 mgt1 strain (AID 161);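 note: 0% = growth of cultures given vehicle only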
Settings: S. cerevisiae sgs1 mgt1 strain, at 50.0 µM
Compounds without any hit were thinned out: in the full panel of roughly 79,000, 15% have a hit. Active and inactive are the calls of the source. Rule as the data show it: active = growth inhibition above about 70%; inactive = the rest.
Please state which outcome applies, choosing from active, inactive

Recorded results for 3 molecules are shown here.
- MOLECULE: "CCOC(=O)C1=C(C(=O)c2ccccc2)C(c2ccccc2[N+](=O)[O-])C(C(=O)c2ccccc2)=C(C(=O)OCC)N1"
  ASSIGNED CLASS: "inactive"
- MOLECULE: "CN(C)CCn1c2c3ccccc3ccc2c2oc(=O)c3ccccc3c21"
  ASSIGNED CLASS: "active"
- MOLECULE: "c1ccc(-c2ccnc3c2ccc2c(-c4ccccc4)ccnc23)cc1"
  ASSIGNED CLASS: "active"

(Q) Which result was noted for this molecule in the test: N#C/C(=C\c1cccc(OCc2ccccc2)c1)c1ccc([N+](=O)[O-])cc1
(A) inactive

====

Please go through the items and note down their growth inhibition.
Test: NCI Yeast Anticancer Drug Screen. Data for the sgs1 strain (AID 173);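 note: 0% = growth of vehicle-only control cultures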
Conditions: S. cerevisiae sgs1 mutant, at 11.0 µM, hits give high values
The panel holds about 79,000 compounds, 15% with a hit somewhere; the sample as a whole holds those more often.
Answers are plain numbers, in %.

- MOLECULE: "COc1cc(/C=C2\\CCc3ccccc3C2=O)cc(OC)c1OC"
  RESULT: 24
- MOLECULE: "CCC(=O)Oc1c(Cl)cc(Cl)c2ccccc12"
  RESULT: 2
- MOLECULE: "CN=C(N)N/N=C/c1ccc2c(c1)Cc1ccccc1-2"
  RESULT: 50

Each molecule below has a reported value. Please supply its growth inhibition.
1. C=C(CN(C)C)C(=O)c1cc(C)ccc1C
2. OCC(Cn1cncn1)(c1ccc(F)cc1F)n1cncn1 (stereo not given)
3. OC1(c2ccccc2)CSC2=Nc3ccccc3C3CCN1N23 (stereo not given)
4. CCOC(=O)c1cnc2c(C(F)(F)F)cccc2c1N=[N+]=[N-]
5. NC(N)=N/N=C\c1c2ccccc2cc2ccccc12
6. CC(=O)[O][Bi]([c]1ccccc1)[c]1ccccc1
7. O=C(O)c1ccccc1NC(=S)c1ccccc1
8. O=C(O)c1cccc(-c2c3ccc(=O)cc-3oc3cc(O)ccc23)c1

(A)
[86, 72, -42, -7, -44, 46, -12, 44]

Okay, here is my list. What is growth inhibition for each of these?
1. [O-][n+]1c2ccc(O)cc2nc2ccc(Br)cc21
2. CCCCN(CCCC)CCSc1ccc(Cl)cc1

(A)
28
10

Return reported growth inhibition values for all items listed beneath this line.
1. CCC[CH2][Ge]([CH2]CCC)([CH2]CCC)[O]C(=O)C(OC)c1ccccc1 (stereo not given)
2. C=C1CC(Cn2cc(Br)c(=O)[nH]c2=O)(c2ccc(-c3ccccc3)cc2)OC1=O (stereo not given)
3. CCc1ncnc2cc(OCC3CO3)c(OC)cc12 (stereo not given)
4. O=C1C=CC(=O)N1c1ccc2c(c1)Cc1cc(NC(=O)C(F)(F)F)ccc1-2
5. CCC/C(Cl)=N\OC(=O)Nc1cccc(C(F)(F)F)c1
6. O=C1C2CC[C@@H]3C(=O)C(Cl)(Cl)[C@@H]3CCC2C1(Cl)Cl (stereo not given in full)

(A)
11
37
70
63
81
33

Please look at the items below and tell me growth inhibition for each one, in order.
1. O=C1C=CC(=C(c2ccccc2)c2ccccc2)c2ccccc21
2. O=C(Nc1ccccc1)OCCc1ccc(Cl)c(Cl)c1

(A)
1. -10
2. 2

Items follow; give growth inhibition for each.
1. O=C(OCCN1CCCCCC1)C(c1ccsc1)C1CCCCC1 (stereo not given)
2. CCc1ccc(NS(=O)(=O)c2ccccc2)c([N+](=O)[O-])c1
3. COc1ccc(/C(C)=N/OC(=O)c2c(-c3ccccc3Cl)noc2C)cc1CN1CCOCC1

(A)
1: 34; 2: 15; 3: -19

Hey, can you go through the list below and give me growth inhibition for every item?
1. COC(=O)C1=C(C)NC(C)=C(C(=O)OCCCN2CCC(c3ccccc3)(c3ccccc3)CC2)C1c1cccc([N+](=O)[O-])c1 (stereo not given)
2. CSC(=S)Nc1cccc(C)n1
3. Cc1nc(-[n+]2nc(-c3ccncc3)nn2-c2ccccc2)sc1C
4. COc1ccc2nc3cccc([N+](=O)[O-])c3c(NCCN(CCO)CCO)c2c1
5. CC(=O)Nc1ccc2c(c1)C(=Nc1ccc(C(=O)O)cc1)c1ccccc1-2

(A)
97
-32
45
93
9

(Q) Report growth inhibition for CO[C@H]1C[C@](C)(O)Cc2cc3c(c(O)c21)C(=O)c1c(O)cc2c(c1C3=O)O[C@@H]1O[C@@]2(C)[C@H](O)[C@@H](N(C)C)[C@@H]1O please.
(A) -24
